// reported GI50 for each item listed
- System: OVCAR-5
- test_protocol: NCI tumour cell line growth inhibition, 48 h
Calls of active or inactive are those of the source. Rule as the data show it: active = GI50 up to about 1.1 µM and inactive = higher.

>  <molecule>
CC1(O)CC23CC(O)C4(O)C(CC(O)C4(C)C)C(C)(O)C2CCC1C3O (stereo not given)

>  <GI50>
> 100 µM (inactive)

$$$$
>  <molecule>
[N-]=[N+]=NC1=C(C(=O)c2ccccc2)C(=O)c2cccc3cccc1c23

>  <GI50>
> 100 µM (inactive)

$$$$
>  <molecule>
CC1(C)CC(=O)C2=C(C1)OC1=C(CC(C)(C)CC1=O)C2c1ccccc1Cl (stereo not given)

>  <GI50>
> 100 µM (inactive)

$$$$
>  <molecule>
O=S(=O)(c1ccccc1)C1CN(Cc2ccccc2)CCN(Cc2ccccc2)C1

>  <GI50>
> 100 µM (inactive)

$$$$
>  <molecule>
O=C1C2C(C(=O)N1c1ccccc1)C1(Br)c3ccccc3C2(Br)C2C(=O)N(c3ccccc3)C(=O)C21 (stereo not given)

>  <GI50>
> 31.6 µM (inactive)

$$$$
>  <molecule>
CCCCCCCCCC1CC(=O)OC23CCCC(=O)C12O3 (stereo not given)

>  <GI50>
> 100 µM (inactive)

$$$$
>  <molecule>
COc1cc2c(cc1OC)C1Cc3ccccc3CCN1CC2 (stereo not given)

>  <GI50>
> 100 µM (inactive)

$$$$
>  <molecule>
Nc1nc[n+](Cc2ccccc2)c2ncn(Cc3ccccc3)c12

>  <GI50>
> 100 µM (inactive)

$$$$
>  <molecule>
CCN(CC)CCNc1ccc2nnn3c4ccc(C)cc4c(=O)c1c23

>  <GI50>
6.71 µM (inactive)

$$$$
>  <molecule>
CCOC(=O)c1ccn2c(c1)c(C#N)c1nc3ccccc3nc12

>  <GI50>
> 100 µM (inactive)

$$$$

Provenance of the data: ChEMBL document CHEMBL1201862
